measured_target: Adenosine receptor A3 (Homo sapiens)
Sequence (P0DMS8 whole entry): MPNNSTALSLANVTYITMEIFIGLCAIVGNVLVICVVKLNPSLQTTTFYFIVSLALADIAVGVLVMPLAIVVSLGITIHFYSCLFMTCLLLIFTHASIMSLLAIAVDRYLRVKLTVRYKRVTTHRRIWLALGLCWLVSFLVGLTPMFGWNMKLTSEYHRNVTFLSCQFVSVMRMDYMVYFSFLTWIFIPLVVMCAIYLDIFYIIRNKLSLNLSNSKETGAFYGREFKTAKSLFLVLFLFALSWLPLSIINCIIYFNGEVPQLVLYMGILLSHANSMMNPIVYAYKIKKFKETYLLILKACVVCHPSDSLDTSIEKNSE
Endpoint summary: Ki, system: Adenosine receptor A3 (Homo sapiens), multiple sources combined.
Give bare numbers, in nM.

Past entries and their recorded results:
Nc1nc(C(=O)NCc2ccccc2F)cc(-c2ccco2)n1	335
Nc1nc(-c2ccc(OCC(O)CO)cc2)cn2c(=O)n(-c3ccccc3)nc12 (stereo not given)	1770

Now look at this entry.
Query block: Which value of Ki has been reported for `Cc1cc(C)cc(OCC(=O)Nc2nnc(-c3ccccc3)[nH]2)c1` in the records?
Result block: 2700

* * *

Compiled notes: published pKi values involving the protein given by its sequence.
Target sequence: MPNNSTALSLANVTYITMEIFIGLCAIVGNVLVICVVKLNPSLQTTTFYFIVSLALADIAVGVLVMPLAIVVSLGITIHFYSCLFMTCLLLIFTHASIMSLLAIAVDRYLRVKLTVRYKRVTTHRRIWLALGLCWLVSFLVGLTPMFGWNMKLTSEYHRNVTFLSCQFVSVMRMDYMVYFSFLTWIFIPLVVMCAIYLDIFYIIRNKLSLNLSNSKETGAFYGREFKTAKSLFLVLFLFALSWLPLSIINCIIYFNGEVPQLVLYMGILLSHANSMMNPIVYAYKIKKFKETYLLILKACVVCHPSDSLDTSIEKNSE
Answers are plain numbers, as −log10 of the molar value.

Batch: pKi for all items listed.
1. Cn1cc2c(nc(NC(=O)Cc3ccc(F)cc3)n3nc(-c4ccco4)nc23)n1
2. CCNC(=O)[C@H]1OC(n2cnc3c(NC(=O)Nc4ccc(S(=O)(=O)NCC)cc4)ncnc32)C(O)C1O (single isomer, unassigned)
3. O=c1[nH]c(-c2ccc(O)cc2)cn2c(=O)n(-c3ccccc3)nc12
4. O=C(Cc1cccc2ccccc12)Nc1nc2nn(CCc3ccccc3)cc2c2nc(-c3ccco3)nn12

Result block:
9.01
7.64
6.68
6.92

* * *

Target chain: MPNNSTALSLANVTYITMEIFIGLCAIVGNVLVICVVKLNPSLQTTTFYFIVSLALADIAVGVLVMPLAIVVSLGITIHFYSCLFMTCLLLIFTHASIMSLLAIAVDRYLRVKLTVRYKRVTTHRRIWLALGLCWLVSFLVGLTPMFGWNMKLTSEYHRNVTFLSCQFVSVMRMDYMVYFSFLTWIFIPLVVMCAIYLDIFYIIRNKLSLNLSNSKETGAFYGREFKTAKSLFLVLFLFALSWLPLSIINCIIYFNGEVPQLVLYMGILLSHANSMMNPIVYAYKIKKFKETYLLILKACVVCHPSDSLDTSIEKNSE
What follows is literature data on pKi for the protein given by its sequence.
Give bare numbers, as −log10 of the molar value.

CC(=O)Oc1ccc(-c2cc3cccc(OC(C)=O)c3oc2=O)cc1OC(C)=O	4.66
Nc1nc(OCCc2c[nH]c3ccc(O)cc23)nc2c1ncn2[C@@H]1O[C@H](CO)[C@@H](O)[C@H]1O	6.92
Cc1cccc(-c2nc3c(=O)[nH]c(C)nc3s2)c1	6.42
Cc1ccc(-c2nc(N)c3nn(Cc4ccccc4Cl)cc3n2)o1	7.15
CN(C)C(=O)[C@H]1S[C@@H](n2cnc3c(NCc4cccc(I)c4)nc(Cl)nc32)[C@H](O)[C@@H]1O	7.81

Batch: pKi for all items listed.
1. Nc1ncnc2c1ncn2[C@@H]1O[C@H](C(=O)NC2CCCC2)[C@@H](O)[C@H]1O
2. CCCn1c(=O)c2[nH]c(-c3cnn(Cc4nc(-c5cccc(OC)c5)no4)c3)nc2n(CCC)c1=O

Result block:
7.49
6.22

Provide the reported pKi of each entry below, same order.
1. CNC(=O)c1cnn(-c2nc(NC)c3ncn([C@@H]4O[C@H](CO)[C@@H](O)[C@H]4O)c3n2)c1
2. COC(=O)c1ccc(C(=O)Nc2nc3ccccc3n3c(=O)n(-c4ccc(OC)cc4)nc23)cc1

Result block:
1. 7.14
2. 5.86
